Test system: CAL-148
procedure text: normalised viability (% of control), CellTiter-Blue; higher = more viable cells (about 100 = DMSO control)
condition context: 3000 nM; incubation time: 72 h
measured property: normalised viability (%)
One number for each entry, in %.

Supply reported normalised viability belonging to this compound: Cn1cncc1[C@@](N)(c1ccc(Cl)cc1)c1ccc2c(c1)c(-c1cccc(Cl)c1)cc(=O)n2C [Tipifarnib]
42.6

Supply reported normalised viability belonging to this compound: CN(C)C[C@@H]1CCn2cc(c3ccccc32)C2=C(C(=O)NC2=O)c2cn(c3ccccc23)CCO1 [Ruboxistaurin]
79.4

Supply reported normalised viability belonging to this compound: CNNCc1ccc(C(=O)NC(C)C)cc1 [Procarbazine]
101

---
Supply reported normalised viability belonging to this compound: CCCCCCCCc1ccc(CCC(N)(CO)CO)cc1 [Fingolimod]
88.8

----------
Test system: HDQ-P1
procedure text: normalised viability (% of control), CellTiter-Blue; higher = more viable cells (about 100 = DMSO control)
condition context: 300 nM; incubation time: 72 h
I'd be grateful if you could share measured normalised viability for these entries.
Numbers only, in %.

Supply reported normalised viability belonging to this compound: COc1ccc(-c2ccc3c(N4CCOC[C@@H]4C)nc(N4CCOC[C@@H]4C)nc3n2)cc1CO [AZD8055]
26.9

Supply reported normalised viability belonging to this compound: O=C(O)CCCc1ccc(N(CCCl)CCCl)cc1 [Chlorambucil]
85.8

Supply reported normalised viability belonging to this compound: CC(C)(C#N)c1cc(Cn2cncn2)cc(C(C)(C)C#N)c1 [Anastrozole]
78

---
Supply reported normalised viability belonging to this compound: CN1CCN(CCOc2cc(OC3CCOCC3)c3c(Nc4c(Cl)ccc5c4OCO5)ncnc3c2)CC1 [Saracatinib]
85.4

----------
Tested on: CAL-51
procedure text: normalised response (% of control), CellTiter-Glo; higher = more viable cells (100 = DMSO, 0 = benzethonium chloride kill control)
condition context: incubation time: 72 h
I'd be grateful if you could share measured normalised response for these entries.
One number for each entry, in %.

These solved cases illustrate the format of a correct answer.
Name the value of normalised response reported for C/C(=C\c1csc(C)n1)[C@@H]1C[C@@H]2O[C@]2(C)CCC[C@H](C)[C@H](O)[C@@H](C)C(=O)C(C)(C)[C@@H](O)CC(=O)O1 [Patupilone] (10 nM) when tested on CAL-51.
56

Name the value of normalised response reported for CN(C)CCN1C(=O)c2cccc3cc(N)cc(c23)C1=O [Amonafide] (100 nM) when tested on CAL-51.
79.1

Name the value of normalised response reported for CN1CCN(CCOc2cc(OC3CCOCC3)c3c(Nc4c(Cl)ccc5c4OCO5)ncnc3c2)CC1 [Saracatinib] (100 nM) when tested on CAL-51.
106

Name the value of normalised response reported for Cn1c(=O)n(-c2ccc(C(C)(C)C#N)cc2)c2c3cc(-c4cnc5ccccc5c4)ccc3ncc21 [Dactolisib] (10 nM) when tested on CAL-51.
68.4

---
Name the value of normalised response reported for Nc1ncnc2c1c(COc1cccc(Cl)c1)nn2C1CCOCC1 (100 nM) when tested on CAL-51.
84.5

----------
System: CAL-148
procedure text: normalised response (% of control), CellTiter-Glo; higher = more viable cells (100 = DMSO, 0 = benzethonium chloride kill control)
condition context: incubation time: 72 h
measured property: normalised response (%)
Give bare numbers, in %.

These solved cases illustrate the format of a correct answer.
Supply reported normalised response belonging to this molecule: COc1ccc(-c2ccc3c(N4CCOC[C@@H]4C)nc(N4CCOC[C@@H]4C)nc3n2)cc1CO [AZD8055] (10000 nM)
14.6

Supply reported normalised response belonging to this molecule: Nc1ncnc2c1c(COc1cccc(Cl)c1)nn2C1CCOCC1 (10000 nM)
113

Supply reported normalised response belonging to this molecule: CC(C)c1c(C(=O)Nc2ccccc2)c(-c2ccccc2)c(-c2ccc(F)cc2)n1CC[C@@H](O)C[C@@H](O)CC(=O)O [Atorvastatin] (10000 nM)
94.8

Supply reported normalised response belonging to this molecule: Nc1nc(OCc2cc(Br)cs2)c2[nH]cnc2n1 [Lomeguatrib] (10000 nM)
101

Supply reported normalised response belonging to this molecule: COc1ccccc1S(=O)(=O)Nc1ccc2c(c1)CN(C)C(=O)N2 [PFI-1] (10000 nM)
82

Supply reported normalised response belonging to this molecule: CN1CCN(CCOc2cc(OC3CCOCC3)c3c(Nc4c(Cl)ccc5c4OCO5)ncnc3c2)CC1 [Saracatinib] (10000 nM)
75.2

Supply reported normalised response belonging to this molecule: O=C(O)CCCc1ccc(N(CCCl)CCCl)cc1 [Chlorambucil] (10000 nM)
103

In the following, a different molecule is considered.
Supply reported normalised response belonging to this molecule: CN(C)CCN1C(=O)c2cccc3cc(N)cc(c23)C1=O [Amonafide] (10000 nM)
25.4
